biological target: AChE E. eel (Electrophorus electricus, UniProt O42275); construct: purchased Sigma Chemical; test: biochemical; parameters: species or system Electric Eel
Sequence (O42275 24-633): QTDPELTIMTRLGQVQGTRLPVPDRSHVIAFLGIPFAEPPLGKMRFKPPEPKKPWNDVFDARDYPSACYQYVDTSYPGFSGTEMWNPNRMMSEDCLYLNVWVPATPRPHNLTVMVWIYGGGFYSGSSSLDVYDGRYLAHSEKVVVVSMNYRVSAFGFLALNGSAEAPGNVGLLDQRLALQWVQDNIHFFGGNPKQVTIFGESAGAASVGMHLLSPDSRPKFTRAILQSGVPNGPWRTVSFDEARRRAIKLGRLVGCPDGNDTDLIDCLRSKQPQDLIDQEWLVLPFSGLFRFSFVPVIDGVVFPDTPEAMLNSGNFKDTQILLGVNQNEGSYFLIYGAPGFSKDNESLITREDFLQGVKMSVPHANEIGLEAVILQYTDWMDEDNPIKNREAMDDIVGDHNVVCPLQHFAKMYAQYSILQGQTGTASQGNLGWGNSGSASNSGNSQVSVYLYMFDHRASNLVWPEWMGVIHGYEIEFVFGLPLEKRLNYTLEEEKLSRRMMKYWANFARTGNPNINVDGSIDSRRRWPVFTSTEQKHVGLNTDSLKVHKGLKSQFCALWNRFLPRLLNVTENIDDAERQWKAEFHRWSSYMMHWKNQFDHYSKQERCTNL
endpoint: IC50 (nM)
// note: answer is a bare numeric in nM

Task item: I have this compound here, CC(CN(C)C)c1cccc(OC(=O)NCCCCCCCCN2CCOCC2)c1 (stereo not shown) , and I need its recorded IC50.
Reply: 1300

Task item: Please report the recorded IC50 for CN(Cc1ccccc1)CC(C)(C)c1cccc(OC(=O)NCCCCCCCCN2CCOCC2)c1 .
Reply: 14000

Task item: Item COc1cc2nc(N3CCN(C(=O)CCCCCCCNC(=O)Oc4cccc(C(C)(C)CN(C)C)c4)CC3)nc(N)c2cc1OC has what recorded IC50?
Reply: 17

Task item: What value of measured IC50 is listed for COc1cc2nc(NCCCCCCCNC(=O)Oc3cccc(C(C)(C)CN(C)C)c3)nc(N)c2cc1OC ?
Reply: 23

---

As a worked illustration, we turn to IC50 data collected for AChE hRBC (Homo sapiens).
Numeric only. Scale: µM

Task item: Query (compound): CN(C)CC(C)(C)c1cccc(OC(=O)N(C)c2cccc(Cl)c2)c1 ; field requested: IC50
Reply: 0.4

Task item: Please look up its IC50: CN(Cc1ccccc1)CC(C)(C)c1cccc(OC(=O)NCCCCCCCCN2CCOCC2)c1
Reply: 4.8

Task item: Look up IC50: CCCCNC(=O)Oc1cccc(C(C)(C)CN(C)C)c1
Reply: 0.13

Task item: IC50 for CN(C)CC(C)(C)c1cccc(OC(=O)NCCCCCCCCCCN2CCOCC2)c1 ?
Reply: 0.1

Task item: Could you share which IC50 value was measured for CN(C)CC(C)(C)c1cccc(OC(=O)N(C)c2cccc(F)c2)c1 ?
Reply: 0.05

Task item: What does the data say about its IC50? Entry: CCCCCCCNC(=O)Oc1cccc(C(C)(C)CN(C)C)c1
Reply: 0.18

---

test: Acute toxicity (single administration) in mouse; conditions: in vivo, iv, read-out: Toxicity tests (LD50), mouse iv
endpoint: LD50 (mg/kg)
Report the value in mg/kg with no unit label.

Task item: What value of LD50 has been recorded for this entry: CN(C)CC(C)(C)c1cccc(OC(=O)NCCCCCCCCN2CCOCC2)c1
Reply: 15

Task item: Name the recorded LD50 for CN(C)CC(C)(C)c1cccc(OC(=O)N(C)c2ccccc2)c1 .
Reply: 15

Task item: // lookup LD50 for CNC(=O)Oc1ccc2c(c1)[C@]1(C)CCN(C)[C@@H]1N2C [Physostigmine, reference compound]
Reply: 0.6

Task item: Which LD50 reading was recorded for the compound CCCCCCCNC(=O)Oc1ccc2c(c1)[C@]1(C)CCN(C)[C@@H]1N2C [Eptastigmine, heptylcarbamic ester of the eseroline, reference compound] ?
Reply: 7

---

assay: Acute toxicity (single administration) in mouse; settings: in vivo, po, os, read-out: Toxicity tests (LD50), mouse os
endpoint: LD50 (mg/kg)
State just the number; it will be interpreted in mg/kg.

Task item: LD50 lookup needed for CN(C)CC(C)(C)c1cccc(OC(=O)NCCCCCCCCN2CCOCC2)c1 , thanks.
Reply: 67

Task item: GET /values?readout=LD50&item= CNC(=O)Oc1ccc2c(c1)[C@]1(C)CCN(C)[C@@H]1N2C [Physostigmine, reference compound]
Reply: 3.4

Task item: Please report the recorded LD50 for CCCCCCCNC(=O)Oc1ccc2c(c1)[C@]1(C)CCN(C)[C@@H]1N2C [Eptastigmine, heptylcarbamic ester of the eseroline, reference compound] .
Reply: 25

Value source: patent US5869484A
